Hey, just so you know, these numbers are from ChEMBL document CHEMBL4732263.

assay: Clearance in Sprague-Dawley rat renal blood at 2.9 mg/kg, iv up to 24 hrs by LC-MS analysis; assay type: ADME, organism-based; conditions: whole blood
Metric: CL renal at 24 h
Remember to quote the unit after the number.

// CL renal at 24 h value for `COc1ncc(-c2nc(C(=O)NC(=N)N)c(N)nc2N)cn1` : 29.2 mL/min/kg

###

experiment: physchem; conditions: HCl, pH 2, pH 2
Metric: solubility kinetic (µg/mL)
Give your result in µg/mL as a bare value.

// field: solubility kinetic; key: `N=C(N)NC(=O)c1nc(-c2ccc(C(F)(F)F)cc2)c(N2CCCCCC2)nc1N` ; value = 25

Measured solubility kinetic, `N=C(N)NC(=O)c1nc(-c2ccco2)c(N2CCCCCC2)nc1N` : 50

Reported solubility kinetic for `N=C(N)NC(=O)c1nc(-c2cc3ccccc3s2)c(N)nc1N` was 50

For this compound ( `N=C(N)NC(=O)c1nc(-c2cc3ccccc3o2)c(N2CCCCCC2)nc1N` ), measured solubility kinetic is 12.5

Reported solubility kinetic ( `N=C(N)NC(=O)c1nc(-c2cc3ccccc3s2)c(N2CCCCCC2)nc1N` ) = 12.5
